- experimental-system: GRASP, Q7Z6J2
- Sequence (Q7Z6J2 96-193): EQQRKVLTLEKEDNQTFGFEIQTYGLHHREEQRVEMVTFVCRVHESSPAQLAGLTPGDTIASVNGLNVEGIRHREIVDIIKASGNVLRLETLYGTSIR
- assay-overview: holdup assay
- Set-up: key: below the threshold = too weak to quantify, mostly under pKd 3.1 to 4
- measurement-parameters: plain residues with an end cap or a label only (N-terminal biotin on a linker: ahx)

binder | pKd
NRKREIFSNF [NHERF2, Q15599] | below the threshold
LSDPSVSTVV [GRIN1, Q05586;Q05586-2] | 3.94
PSASCAVTAA [PDLIM4, P50479;P50479-2] | below the threshold
TVICWPGSLV [LNX2, Q8N448] | 4.59
ESLLLGPSNF [SHROOM4, Q9ULL8] | 4.36
RRRKRKRTYL [HPV49-L2, P36762] | 4.37
SDSSGQEYSL [KCTD3, Q9Y597] | below the threshold
HNAFLSVTTV [PDZRN4, Q6ZMN7] | 3.57
RAVEEEESRF [PSCDBP, O60759] | below the threshold
GYDWGPATDL [TJP3, O95049] | 4.14
